# measured-target: PRKCE (human) (UniProt Q02156)
# Sequence (Q02156 whole entry, looked up): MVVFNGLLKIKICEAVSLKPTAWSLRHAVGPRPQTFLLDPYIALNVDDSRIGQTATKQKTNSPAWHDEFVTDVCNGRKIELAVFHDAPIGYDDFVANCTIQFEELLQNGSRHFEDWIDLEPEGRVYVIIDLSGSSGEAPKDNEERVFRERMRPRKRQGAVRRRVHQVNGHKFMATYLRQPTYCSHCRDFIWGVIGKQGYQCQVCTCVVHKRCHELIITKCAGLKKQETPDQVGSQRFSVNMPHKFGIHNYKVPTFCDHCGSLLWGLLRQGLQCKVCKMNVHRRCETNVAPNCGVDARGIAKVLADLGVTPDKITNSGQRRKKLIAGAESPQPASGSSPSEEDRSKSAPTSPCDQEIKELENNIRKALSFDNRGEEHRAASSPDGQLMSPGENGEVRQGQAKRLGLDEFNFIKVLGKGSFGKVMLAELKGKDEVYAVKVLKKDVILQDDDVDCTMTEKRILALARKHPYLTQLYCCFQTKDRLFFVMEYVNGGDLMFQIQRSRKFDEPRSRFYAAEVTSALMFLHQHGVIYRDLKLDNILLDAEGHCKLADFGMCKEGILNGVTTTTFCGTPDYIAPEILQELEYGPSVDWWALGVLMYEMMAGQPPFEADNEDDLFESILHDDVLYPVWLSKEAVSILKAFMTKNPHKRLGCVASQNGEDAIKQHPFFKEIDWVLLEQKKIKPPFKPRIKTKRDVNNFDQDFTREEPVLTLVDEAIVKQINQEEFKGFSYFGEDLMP
# method-summary: KINOMEscan competition binding
# condition-set: compound 1.0 µM
recorded-metric: kinase still bound, per cent of control (%)

1. Cc1cc(NC(=O)c2cccc(NC(=O)/C=C/CN(C)C)c2)ccc1Nc1nccc(-c2cccnc2)n1
81
2. CN(C)C/C=C/C(=O)Nc1cccc(C(=O)Nc2ccc(Nc3nccc(-c4c(-c5ccccc5)nn5ccccc45)n3)cc2)c1
93
3. CN(C)C/C=C/C(=O)Nc1cccc(C(=O)Nc2ccc(Nc3nccc(-c4cccnc4)n3)cc2)c1
61
4. CN(C)C/C=C/C(=O)Nc1cccc(C(=O)Nc2ccc(Nc3nccc(/C(C#N)=C4\Nc5ccccc5S4)n3)cc2)c1
100

====

Item-by-item account of kinase still bound, per cent of control
# measured-target: EPHB2 (human) (UniProt P29323)
# Sequence (P29323 whole entry, looked up): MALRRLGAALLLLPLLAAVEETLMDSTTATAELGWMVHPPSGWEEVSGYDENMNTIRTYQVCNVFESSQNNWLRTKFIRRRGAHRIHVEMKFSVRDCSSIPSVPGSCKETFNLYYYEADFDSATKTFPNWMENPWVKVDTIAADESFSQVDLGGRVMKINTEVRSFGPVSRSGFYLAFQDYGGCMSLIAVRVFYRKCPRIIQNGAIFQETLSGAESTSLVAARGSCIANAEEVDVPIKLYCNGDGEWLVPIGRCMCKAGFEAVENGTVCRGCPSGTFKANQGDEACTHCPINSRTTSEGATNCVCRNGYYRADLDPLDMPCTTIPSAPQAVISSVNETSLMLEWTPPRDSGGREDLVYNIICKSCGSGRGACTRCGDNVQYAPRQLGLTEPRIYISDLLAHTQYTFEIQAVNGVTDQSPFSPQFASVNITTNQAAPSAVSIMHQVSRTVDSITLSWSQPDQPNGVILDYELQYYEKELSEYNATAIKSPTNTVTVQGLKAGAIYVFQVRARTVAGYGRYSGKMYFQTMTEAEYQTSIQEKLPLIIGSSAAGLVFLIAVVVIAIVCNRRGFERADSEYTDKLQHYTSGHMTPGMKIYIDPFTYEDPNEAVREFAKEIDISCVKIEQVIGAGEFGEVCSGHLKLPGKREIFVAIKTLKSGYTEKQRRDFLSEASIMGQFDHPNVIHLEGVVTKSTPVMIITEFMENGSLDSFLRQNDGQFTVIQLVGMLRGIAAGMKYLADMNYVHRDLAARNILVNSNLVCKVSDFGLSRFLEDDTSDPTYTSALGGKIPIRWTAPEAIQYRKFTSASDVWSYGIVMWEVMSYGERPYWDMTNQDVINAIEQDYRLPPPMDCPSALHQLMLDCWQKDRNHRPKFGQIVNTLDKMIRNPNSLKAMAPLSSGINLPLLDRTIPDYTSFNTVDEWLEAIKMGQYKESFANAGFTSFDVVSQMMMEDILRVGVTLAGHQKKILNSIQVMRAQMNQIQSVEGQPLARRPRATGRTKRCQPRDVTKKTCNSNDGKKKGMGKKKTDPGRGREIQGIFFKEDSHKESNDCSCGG
# method-summary: KINOMEscan competition binding
# condition-set: compound 1.0 µM
recorded-metric: kinase still bound, per cent of control

1) CN(C)C/C=C/C(=O)Nc1cccc(C(=O)Nc2ccc(Nc3nccc(-c4c(-c5ccccc5)nn5ccccc45)n3)cc2)c1
67%
2) CN(C)C/C=C/C(=O)Nc1cccc(C(=O)Nc2ccc(Nc3nccc(-c4cccnc4)n3)cc2)c1
90%
3) Cc1cc(NC(=O)c2cccc(NC(=O)/C=C/CN(C)C)c2)ccc1Nc1nccc(-c2cccnc2)n1
100%
4) CN(C)C/C=C/C(=O)Nc1cccc(C(=O)Nc2ccc(Nc3nccc(/C(C#N)=C4\Nc5ccccc5S4)n3)cc2)c1
77%

====

Item-by-item account of kinase still bound, per cent of control
# measured-target: PIK3CA (human)
# method-summary: KINOMEscan competition binding
# condition-set: compound 1.0 µM
recorded-metric: kinase still bound, per cent of control

1. Cc1cc(NC(=O)c2cccc(NC(=O)/C=C/CN(C)C)c2)ccc1Nc1nccc(-c2cccnc2)n1
100%
2. CN(C)C/C=C/C(=O)Nc1cccc(C(=O)Nc2ccc(Nc3nccc(/C(C#N)=C4\Nc5ccccc5S4)n3)cc2)c1
64%
3. CN(C)C/C=C/C(=O)Nc1cccc(C(=O)Nc2ccc(Nc3nccc(-c4c(-c5ccccc5)nn5ccccc45)n3)cc2)c1
99%
4. CN(C)C/C=C/C(=O)Nc1cccc(C(=O)Nc2ccc(Nc3nccc(-c4cccnc4)n3)cc2)c1
75%

====

# measured-target: KIT (human) (UniProt P10721)
# Sequence (P10721 whole entry, looked up): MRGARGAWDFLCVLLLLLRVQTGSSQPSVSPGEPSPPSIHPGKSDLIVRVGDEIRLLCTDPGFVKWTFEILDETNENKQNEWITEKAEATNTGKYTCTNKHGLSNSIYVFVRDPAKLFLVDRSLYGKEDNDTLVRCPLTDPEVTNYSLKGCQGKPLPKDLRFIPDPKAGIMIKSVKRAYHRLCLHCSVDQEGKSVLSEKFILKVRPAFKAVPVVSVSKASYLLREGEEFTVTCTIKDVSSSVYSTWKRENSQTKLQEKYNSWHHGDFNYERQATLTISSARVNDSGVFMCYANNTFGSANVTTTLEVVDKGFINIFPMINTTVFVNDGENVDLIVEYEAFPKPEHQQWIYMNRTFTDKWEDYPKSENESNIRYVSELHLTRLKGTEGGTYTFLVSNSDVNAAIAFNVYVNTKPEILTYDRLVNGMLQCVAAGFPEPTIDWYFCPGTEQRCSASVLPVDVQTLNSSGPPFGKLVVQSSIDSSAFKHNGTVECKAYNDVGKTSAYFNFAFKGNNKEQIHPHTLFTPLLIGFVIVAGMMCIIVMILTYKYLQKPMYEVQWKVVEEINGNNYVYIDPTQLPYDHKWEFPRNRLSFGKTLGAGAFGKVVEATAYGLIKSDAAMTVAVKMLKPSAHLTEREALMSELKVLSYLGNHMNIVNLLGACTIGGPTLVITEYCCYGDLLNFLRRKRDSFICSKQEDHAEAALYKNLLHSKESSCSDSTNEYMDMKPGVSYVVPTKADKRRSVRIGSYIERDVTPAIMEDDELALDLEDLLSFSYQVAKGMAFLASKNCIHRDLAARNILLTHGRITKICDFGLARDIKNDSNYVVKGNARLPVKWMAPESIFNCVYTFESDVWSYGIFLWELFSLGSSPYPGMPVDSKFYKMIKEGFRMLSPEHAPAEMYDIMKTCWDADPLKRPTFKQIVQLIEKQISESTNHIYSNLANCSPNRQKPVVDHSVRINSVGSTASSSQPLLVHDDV
recorded-metric: Kd (nM)

1. Cc1ccc(NC(=O)c2ccc(NC(=O)/C=C/CN(C)C)cc2)cc1Nc1nccc(-c2cccnc2)n1
30

====

# measured-target: NTRK2 (human) (UniProt Q16620)
# method-summary: KINOMEscan competition binding
# condition-set: compound 1.0 µM
Item-by-item account of kinase still bound, per cent of control
recorded-metric: kinase still bound, per cent of control (%)

1. CN(C)C/C=C/C(=O)Nc1cccc(C(=O)Nc2ccc(Nc3nccc(-c4cccnc4)n3)cc2)c1
94
2. CN(C)C/C=C/C(=O)Nc1cccc(C(=O)Nc2ccc(Nc3nccc(/C(C#N)=C4\Nc5ccccc5S4)n3)cc2)c1
100
3. CN(C)C/C=C/C(=O)Nc1cccc(C(=O)Nc2ccc(Nc3nccc(-c4c(-c5ccccc5)nn5ccccc45)n3)cc2)c1
14
4. Cc1cc(NC(=O)c2cccc(NC(=O)/C=C/CN(C)C)c2)ccc1Nc1nccc(-c2cccnc2)n1
96

====

Item-by-item account of IC50
# measured-target: MAP3K7 (human)
# method-summary: radiometric filter-binding kinase assay
recorded-metric: IC50 (nM)

1) CN(C)C/C=C/C(=O)Nc1cccc(C(=O)Nc2ccc(Nc3nccc(/C(C#N)=C4\Nc5ccccc5S4)n3)cc2)c1
866
2) CN(C)C/C=C/C(=O)Nc1cccc(C(=O)Nc2ccc(Nc3nccc(-c4c(-c5ccccc5)nn5ccccc45)n3)cc2)c1
351
3) CN(C)C/C=C/C(=O)Nc1cccc(C(=O)Nc2ccc(Nc3nccc(-c4cccnc4)n3)cc2)c1
833
4) Cc1cc(NC(=O)c2cccc(NC(=O)/C=C/CN(C)C)c2)ccc1Nc1nccc(-c2cccnc2)n1
7720

====

# measured-target: PHKG1 (human)
# method-summary: KINOMEscan competition binding
# condition-set: compound 1.0 µM
recorded-metric: kinase still bound, per cent of control (%)

1. Cc1cc(NC(=O)c2cccc(NC(=O)/C=C/CN(C)C)c2)ccc1Nc1nccc(-c2cccnc2)n1
87
2. CN(C)C/C=C/C(=O)Nc1cccc(C(=O)Nc2ccc(Nc3nccc(-c4cccnc4)n3)cc2)c1
91
3. CN(C)C/C=C/C(=O)Nc1cccc(C(=O)Nc2ccc(Nc3nccc(/C(C#N)=C4\Nc5ccccc5S4)n3)cc2)c1
94
4. CN(C)C/C=C/C(=O)Nc1cccc(C(=O)Nc2ccc(Nc3nccc(-c4c(-c5ccccc5)nn5ccccc45)n3)cc2)c1
100

====

# Tested on: KIT (human), P10721 [V559D/T670I]
# Sequence (P10721 whole entry V559D/T670I, looked up): as the sequence (P10721 whole entry, looked up) above, with V559D, T670I counted along it
# method-summary: KINOMEscan competition binding
# condition-set: compound 1.0 µM
Item-by-item account of kinase still bound, per cent of control
recorded-metric: kinase still bound, per cent of control (%)

1) CN(C)C/C=C/C(=O)Nc1cccc(C(=O)Nc2ccc(Nc3nccc(-c4c(-c5ccccc5)nn5ccccc45)n3)cc2)c1
4
2) CN(C)C/C=C/C(=O)Nc1cccc(C(=O)Nc2ccc(Nc3nccc(-c4cccnc4)n3)cc2)c1
9.8
3) CN(C)C/C=C/C(=O)Nc1cccc(C(=O)Nc2ccc(Nc3nccc(/C(C#N)=C4\Nc5ccccc5S4)n3)cc2)c1
6.6
4) Cc1cc(NC(=O)c2cccc(NC(=O)/C=C/CN(C)C)c2)ccc1Nc1nccc(-c2cccnc2)n1
4.4

====

# measured-target: CSNK1A1L (human)
# method-summary: KINOMEscan competition binding
# condition-set: compound 1.0 µM
recorded-metric: kinase still bound, per cent of control (%)

1) Cc1cc(NC(=O)c2cccc(NC(=O)/C=C/CN(C)C)c2)ccc1Nc1nccc(-c2cccnc2)n1
71
2) CN(C)C/C=C/C(=O)Nc1cccc(C(=O)Nc2ccc(Nc3nccc(/C(C#N)=C4\Nc5ccccc5S4)n3)cc2)c1
100
3) CN(C)C/C=C/C(=O)Nc1cccc(C(=O)Nc2ccc(Nc3nccc(-c4cccnc4)n3)cc2)c1
37
4) CN(C)C/C=C/C(=O)Nc1cccc(C(=O)Nc2ccc(Nc3nccc(-c4c(-c5ccccc5)nn5ccccc45)n3)cc2)c1
5.5

====

Item-by-item account of kinase still bound, per cent of control
# measured-target: STK16 (human) (UniProt O75716)
# Sequence (O75716 whole entry, looked up): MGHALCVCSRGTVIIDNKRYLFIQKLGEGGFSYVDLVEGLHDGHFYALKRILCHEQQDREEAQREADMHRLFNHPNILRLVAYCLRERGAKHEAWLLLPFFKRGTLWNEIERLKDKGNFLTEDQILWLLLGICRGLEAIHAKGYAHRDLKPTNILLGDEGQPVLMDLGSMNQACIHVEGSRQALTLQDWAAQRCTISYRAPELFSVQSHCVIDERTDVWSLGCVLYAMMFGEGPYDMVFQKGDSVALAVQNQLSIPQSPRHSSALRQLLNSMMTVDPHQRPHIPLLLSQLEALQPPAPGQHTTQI
# method-summary: KINOMEscan competition binding
# condition-set: compound 1.0 µM
recorded-metric: kinase still bound, per cent of control (%)

1. CN(C)C/C=C/C(=O)Nc1cccc(C(=O)Nc2ccc(Nc3nccc(/C(C#N)=C4\Nc5ccccc5S4)n3)cc2)c1
100
2. CN(C)C/C=C/C(=O)Nc1cccc(C(=O)Nc2ccc(Nc3nccc(-c4cccnc4)n3)cc2)c1
15
3. CN(C)C/C=C/C(=O)Nc1cccc(C(=O)Nc2ccc(Nc3nccc(-c4c(-c5ccccc5)nn5ccccc45)n3)cc2)c1
37
4. Cc1cc(NC(=O)c2cccc(NC(=O)/C=C/CN(C)C)c2)ccc1Nc1nccc(-c2cccnc2)n1
61

====

Item-by-item account of kinase still bound, per cent of control
# measured-target: RIPK1 (human) (UniProt Q13546)
# Sequence (Q13546 whole entry, looked up): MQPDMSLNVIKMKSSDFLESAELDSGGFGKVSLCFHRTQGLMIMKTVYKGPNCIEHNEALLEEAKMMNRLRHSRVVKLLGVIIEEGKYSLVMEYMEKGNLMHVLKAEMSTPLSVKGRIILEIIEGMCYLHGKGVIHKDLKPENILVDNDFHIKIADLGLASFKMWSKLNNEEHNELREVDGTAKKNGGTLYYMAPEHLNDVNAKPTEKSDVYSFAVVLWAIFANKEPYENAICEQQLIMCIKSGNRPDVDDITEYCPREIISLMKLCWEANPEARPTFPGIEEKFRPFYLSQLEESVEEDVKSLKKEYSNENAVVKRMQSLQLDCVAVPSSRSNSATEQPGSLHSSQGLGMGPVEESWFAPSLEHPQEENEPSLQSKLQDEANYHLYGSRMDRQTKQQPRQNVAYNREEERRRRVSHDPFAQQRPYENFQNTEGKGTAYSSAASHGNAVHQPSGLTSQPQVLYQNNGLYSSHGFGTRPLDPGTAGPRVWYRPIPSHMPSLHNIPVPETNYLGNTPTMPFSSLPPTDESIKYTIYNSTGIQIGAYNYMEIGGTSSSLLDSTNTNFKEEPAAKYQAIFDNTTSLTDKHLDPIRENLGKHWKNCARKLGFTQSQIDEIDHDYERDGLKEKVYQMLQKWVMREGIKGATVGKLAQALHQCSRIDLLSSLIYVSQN
# method-summary: KINOMEscan competition binding
# condition-set: compound 1.0 µM
recorded-metric: kinase still bound, per cent of control (%)

1. CN(C)C/C=C/C(=O)Nc1cccc(C(=O)Nc2ccc(Nc3nccc(-c4c(-c5ccccc5)nn5ccccc45)n3)cc2)c1
73
2. Cc1cc(NC(=O)c2cccc(NC(=O)/C=C/CN(C)C)c2)ccc1Nc1nccc(-c2cccnc2)n1
51
3. CN(C)C/C=C/C(=O)Nc1cccc(C(=O)Nc2ccc(Nc3nccc(/C(C#N)=C4\Nc5ccccc5S4)n3)cc2)c1
85
4. CN(C)C/C=C/C(=O)Nc1cccc(C(=O)Nc2ccc(Nc3nccc(-c4cccnc4)n3)cc2)c1
18

====

# measured-target: CSNK1G2 (human) (UniProt P78368)
# Sequence (P78368 whole entry, looked up): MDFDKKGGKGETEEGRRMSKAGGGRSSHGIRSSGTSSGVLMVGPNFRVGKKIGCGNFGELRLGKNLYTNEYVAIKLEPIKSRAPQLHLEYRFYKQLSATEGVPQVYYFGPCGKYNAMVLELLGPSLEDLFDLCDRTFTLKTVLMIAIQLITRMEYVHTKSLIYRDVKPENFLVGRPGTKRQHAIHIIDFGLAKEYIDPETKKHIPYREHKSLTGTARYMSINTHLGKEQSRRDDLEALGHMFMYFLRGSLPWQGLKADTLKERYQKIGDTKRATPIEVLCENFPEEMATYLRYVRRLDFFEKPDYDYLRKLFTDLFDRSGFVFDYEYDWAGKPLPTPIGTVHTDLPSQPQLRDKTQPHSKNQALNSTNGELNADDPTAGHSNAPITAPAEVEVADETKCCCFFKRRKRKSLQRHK
# method-summary: KINOMEscan competition binding
# condition-set: compound 1.0 µM
Item-by-item account of kinase still bound, per cent of control
recorded-metric: kinase still bound, per cent of control (%)

1. CN(C)C/C=C/C(=O)Nc1cccc(C(=O)Nc2ccc(Nc3nccc(-c4c(-c5ccccc5)nn5ccccc45)n3)cc2)c1
0.85
2. Cc1cc(NC(=O)c2cccc(NC(=O)/C=C/CN(C)C)c2)ccc1Nc1nccc(-c2cccnc2)n1
73
3. CN(C)C/C=C/C(=O)Nc1cccc(C(=O)Nc2ccc(Nc3nccc(-c4cccnc4)n3)cc2)c1
12
4. CN(C)C/C=C/C(=O)Nc1cccc(C(=O)Nc2ccc(Nc3nccc(/C(C#N)=C4\Nc5ccccc5S4)n3)cc2)c1
22

====

Item-by-item account of kinase still bound, per cent of control
# measured-target: MARK3 (human) (UniProt P27448)
# Sequence (P27448 whole entry, looked up): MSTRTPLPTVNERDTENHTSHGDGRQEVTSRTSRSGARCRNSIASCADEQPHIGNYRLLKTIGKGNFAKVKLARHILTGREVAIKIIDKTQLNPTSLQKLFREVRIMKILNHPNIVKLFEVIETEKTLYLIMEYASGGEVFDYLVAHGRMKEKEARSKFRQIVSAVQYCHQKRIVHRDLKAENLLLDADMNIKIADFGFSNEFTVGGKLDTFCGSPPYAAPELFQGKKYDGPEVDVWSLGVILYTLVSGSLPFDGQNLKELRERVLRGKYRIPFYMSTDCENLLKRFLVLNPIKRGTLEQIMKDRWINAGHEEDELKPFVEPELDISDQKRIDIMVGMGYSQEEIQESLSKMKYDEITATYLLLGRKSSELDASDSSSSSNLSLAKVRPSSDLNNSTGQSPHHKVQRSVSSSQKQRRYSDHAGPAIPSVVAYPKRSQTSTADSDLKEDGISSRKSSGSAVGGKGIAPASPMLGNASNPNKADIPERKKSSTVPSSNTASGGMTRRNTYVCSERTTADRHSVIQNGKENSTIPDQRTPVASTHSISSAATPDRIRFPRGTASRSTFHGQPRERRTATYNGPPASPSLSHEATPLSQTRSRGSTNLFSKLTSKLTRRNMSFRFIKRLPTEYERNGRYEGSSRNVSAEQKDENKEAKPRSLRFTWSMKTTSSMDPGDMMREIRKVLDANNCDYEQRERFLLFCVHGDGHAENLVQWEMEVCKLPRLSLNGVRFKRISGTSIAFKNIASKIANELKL
# method-summary: KINOMEscan competition binding
# condition-set: compound 1.0 µM
recorded-metric: kinase still bound, per cent of control (%)

1) CN(C)C/C=C/C(=O)Nc1cccc(C(=O)Nc2ccc(Nc3nccc(/C(C#N)=C4\Nc5ccccc5S4)n3)cc2)c1
100
2) CN(C)C/C=C/C(=O)Nc1cccc(C(=O)Nc2ccc(Nc3nccc(-c4c(-c5ccccc5)nn5ccccc45)n3)cc2)c1
75
3) Cc1cc(NC(=O)c2cccc(NC(=O)/C=C/CN(C)C)c2)ccc1Nc1nccc(-c2cccnc2)n1
100
4) CN(C)C/C=C/C(=O)Nc1cccc(C(=O)Nc2ccc(Nc3nccc(-c4cccnc4)n3)cc2)c1
100

Values from the kinase profiling compilation of Christmann-Franck et al. (2016)
